The measurements presented in this section are drawn from patent US20250195483A1.

In this section, each of the compounds is paired with its reported IC50.
molecular target: APOL1 (Homo sapiens, UniProt O14791); assay: MultiTox-Fluor Multiplex Cytotoxicity Assay, tet-inducible APOL1 T-REx-HEK293 cells (G0, G1 or G2 clone not specified for Table 20); details: tet-induced, 24 hours with compound, ratio of dead to live cells, read-out: IP50 (i.e., IC50 for cell proliferation)

{"columns": ["COMPOUND", "IC50"],
 "data": [
  ["CC(C)n1cc(Cn2cc(CN3CC[C@]4(C[C@@H]3C)OCCc3ccc(Cl)cc34)nn2)c(=O)[nH]c1=O", "≤ 50 nM"],
  ["NC(=O)C1OC2(CCN(Cc3cnn(C[C@@H](O)CO)c3)CC2)c2cc(Cl)ccc21 (some centres unmarked)", "50 to 500 nM"],
  ["NC(=O)C1OC2(CCN(Cc3cn[nH]c3)CC2)c2cc(Cl)ccc21 (centres unmarked)", "≤ 50 nM"],
  ["Cc1nnc(O)c(Cn2cc(CN3CC[C@]4(C[C@@H]3C)OCCc3ccc(Cl)cc34)nn2)c1C", "50 to 500 nM"],
  ["C[C@H]1C[C@@]2(CCN1Cc1cn(CC3CC(=O)N(C)C3)nn1)OCCc1ccc(Cl)cc12 (some centres unmarked)", "50 to 500 nM"],
  ["CNC(=O)C1OC2(CCN(Cc3cnn(-c4ccccc4)c3)CC2)c2cc(Cl)ccc21 (centres unmarked)", "≤ 50 nM"],
  ["C[C@H]1C[C@@]2(CCN1Cc1cn(Cc3cn(C4CC4)c(=O)[nH]c3=O)nn1)OCCc1ccc(Cl)cc12", "≤ 50 nM"],
  ["CC1(O)CC2(CCN(Cc3cnn(CCS(C)(=O)=O)c3)CC2)c2cc(Cl)ccc21 (centres unmarked)", "≥ 500 nM"],
  ["NC(=O)C1OC2(CCN(Cc3c[nH]c4ncncc34)CC2)c2cc(Cl)ccc21 (centres unmarked)", "≥ 500 nM"],
  ["C[C@H]1C[C@@]2(CCN1Cc1cnn(CC(=O)N(C)C)c1)OCCc1ccc(Cl)cc12", "50 to 500 nM"],
  ["Cc1cccc2c1C(O)CC21CCN(Cc2cnn(CCS(C)(=O)=O)c2)[C@@H](C)C1 (some centres unmarked)", "50 to 500 nM"],
  ["NC(=O)C1OC2(CCN(Cc3cnn(-c4ccccc4)c3)CC2)c2cc(Cl)ccc21 (single isomer, unassigned) [Compound 194]", "≤ 50 nM"],
  ["Cc1ccc2c(c1)C1(CCN(Cc3cnn(C)c3)CC1)OC2", "≥ 500 nM"],
  ["Cc1ccc2c(c1)C1(CCN(Cc3cnn(CCO)c3)CC1)C(=O)N2", "≥ 500 nM"],
  ["NC(=O)C1OC2(CCN(Cc3cnn(-c4cccnc4)c3)CC2)c2cc(Cl)ccc21 (centres unmarked)", "≤ 50 nM"],
  ["Cc1ccc2c(c1)C1(CCN(Cc3ccccc3)C(C)C1)OCC2 (centres unmarked) [Compound 137]", "≥ 500 nM"],
  ["COC(=O)c1ccc(CN2CCC3(CC2)OC(C(N)=O)c2ccc(Cl)cc23)nc1 (centres unmarked)", "50 to 500 nM"],
  ["CC1CN(Cc2cnn(C)c2)CCC12OCCc1ccc(Cl)cc12 (centres unmarked)", "≥ 500 nM"],
  ["CCN1C(=O)C2(CCN(Cc3cnn(CCS(C)(=O)=O)c3)CC2)c2cc(Cl)ccc21", "50 to 500 nM"],
  ["NC(=O)C1OC2(CCN(Cc3ccc(F)c(S(N)(=O)=O)c3)CC2)c2cc(Cl)ccc21 (centres unmarked)", "≥ 500 nM"]
]}
